Recorded values, source BindingDB's records for doi:10.3109/14756366.2011.637202.

- study.system: Carbonic anhydrase 1 (Homo sapiens, UniProt P00915)
- Sequence (P00915 whole entry): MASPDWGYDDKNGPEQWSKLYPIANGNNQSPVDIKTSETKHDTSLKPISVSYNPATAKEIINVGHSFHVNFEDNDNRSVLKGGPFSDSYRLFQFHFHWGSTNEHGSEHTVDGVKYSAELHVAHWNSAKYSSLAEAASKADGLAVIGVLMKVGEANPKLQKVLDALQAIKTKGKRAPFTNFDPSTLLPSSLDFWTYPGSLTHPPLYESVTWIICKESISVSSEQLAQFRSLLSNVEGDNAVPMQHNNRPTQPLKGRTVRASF
- assay.name: Esterase Activity Assay
pKi: −log10 of the molar value.
reported.metric: pKi

[[record]]
compound = "Oc1ccc(-c2ccccc2)cc1 [4-Hydroxybiphenyl]"
value_observed = 4.71

[[record]]
compound = "CS(=O)(=O)Oc1ccc(-c2ccccc2)cc1 [Biphenyl-4-ylmethanesulfonate (5)]"
value_observed = 4.31

[[record]]
compound = "CS(=O)(=O)Oc1ccc(OS(C)(=O)=O)cc1 [1,4-Phenylene dimethanesulfonate (6)]"
value_observed = 4.65

[[record]]
compound = "CS(=O)(=O)Oc1ccccc1OS(C)(=O)=O [1,2-Phenylenedimethanesulfonate (13)]"
value_observed = 3.71

[[record]]
compound = "CS(=O)(=O)Oc1ccccc1 [Phenylmethanesulfonate (4)]"
value_observed = 4.56

